Target: recombinant human GITR (Cat No. 13643-H08H, Lot No. LC12JA2509, Sino Biological) (human) (UniProt Q9Y5U5)
Assay: SPR Biacore 8K, single-cycle kinetics, IgG in supernatant captured on Protein A, GITR as analyte
measured attribute: kon (M⁻¹ s⁻¹)
Give your result in M⁻¹ s⁻¹ as a bare value.

binder	measured
anti-GITR 51B VH4/VL1 humanized antibody (human IgG1, kappa) (antibody, V domains shown) VH: QVQLVQSGAEVKKPGASVKVSCKTTGYRFTGYWINWVRQPPGKGLEWIGEILPGSGATYYSENFKGKVTITADTSTDTAYMELSSLRSEDTAIYYCARKGGYYAMDYWGQGTLVTVSS VL: QIVLTQSPAIMSASLGERVTMSCTASSSVSSSYFHWYQQKPGSAPKLWIYSTSNLASGVPDRFSGSGSGTDYTLTVSSLQAEDVATYYCHLYHRSPRTFGGGTTVDIKR	627000

anti-GITR 51B VH0/VL1 antibody (human IgG1, kappa) (antibody, V domains shown) VH: QVQLQQSGAELMKPGASVKLSCKTTGYRFTGYWIEWVKQRPGHGLEWIGEILPGSGATYYSENFKGKATFTADTSSNTAYMQVSSLTTGDSAIYYCARKGGYYAMDYWGQGTSVTVSS VL: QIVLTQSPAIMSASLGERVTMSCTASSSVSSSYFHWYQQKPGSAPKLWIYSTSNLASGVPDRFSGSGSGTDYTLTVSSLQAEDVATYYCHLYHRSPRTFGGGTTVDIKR has a reported kon of 642000
